Target: T1, WT
T1 construct: also called T cells of wild-type (WT) mice; mouse TNFR2 on the cell membrane
T1 chain: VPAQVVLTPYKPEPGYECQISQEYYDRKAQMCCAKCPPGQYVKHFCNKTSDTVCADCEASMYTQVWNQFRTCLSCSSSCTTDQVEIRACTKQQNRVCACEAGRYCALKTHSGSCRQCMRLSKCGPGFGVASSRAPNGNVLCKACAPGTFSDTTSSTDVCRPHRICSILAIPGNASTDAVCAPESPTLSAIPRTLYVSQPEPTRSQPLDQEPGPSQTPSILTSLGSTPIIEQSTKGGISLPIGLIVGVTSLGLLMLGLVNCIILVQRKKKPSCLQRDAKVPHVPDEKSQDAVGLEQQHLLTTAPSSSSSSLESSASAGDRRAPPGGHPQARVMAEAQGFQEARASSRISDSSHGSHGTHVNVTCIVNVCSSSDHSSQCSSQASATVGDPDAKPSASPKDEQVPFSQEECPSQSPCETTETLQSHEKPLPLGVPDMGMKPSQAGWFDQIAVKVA
Test: flow cytometry on ConA-stimulated spleen cells of WT mice, mCD3+ T cells
Listing: percent of cells in the upper right quadrant (Q2-UR, mCD3+ and anti-hIgG+) of selected binders
Your answer is read as %, so omit the unit and give the number.

In the examples that follow, each entry is paired with its recorded percent of cells in the upper right quadrant (Q2-UR, mCD3+ and anti-hIgG+).
BINDER: human-mouse chimeric TNFR2 monoclonal antibody 12E12-hFc (antibody, V domains shown, Mouse V regions of clone 12E12 with human constant regions; also called human-mouse chimeric 12E12 antibody) VH: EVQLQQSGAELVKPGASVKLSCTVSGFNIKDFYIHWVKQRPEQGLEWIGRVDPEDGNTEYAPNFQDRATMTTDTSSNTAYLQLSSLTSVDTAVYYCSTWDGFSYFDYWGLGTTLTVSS VL: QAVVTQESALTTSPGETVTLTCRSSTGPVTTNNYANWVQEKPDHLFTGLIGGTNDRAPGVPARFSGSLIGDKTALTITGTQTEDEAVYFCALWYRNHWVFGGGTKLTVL
VALUE_REPORTED: 0.83
--
BINDER: human-mouse chimeric TNFR2 monoclonal antibody 33C12-hFc (antibody, V domains shown, Mouse V regions of clone 33C12 with human constant regions; also called human-mouse chimeric 33C12 antibody) VH: DVKLVESGGGLVKPGGSLKLSCAASGFTFSDYTMSWVRQTPEKRLEWVATISTGGSYTYYPDSVKGRFTISRDNAKNTLYLQMSSLKSEDTAMYYCTRDGGYDGDYFDYWGQGTTLTVSS VL: ENVLTQSPAIMSASPGEKVTMTCRASSSVSSSYLHWYQQKSGASPKLWIYRTSNLASGVPARFSGSGSGTSYSLTISSVEAEDAATYYCQQYSGYPLTFGAGTRLELK
VALUE_REPORTED: 1.02
--
BINDER: human-mouse chimeric TNFR2 monoclonal antibody 7F2-hFc (antibody, V domains shown, Mouse V regions of clone 7F2 with human constant regions) VH: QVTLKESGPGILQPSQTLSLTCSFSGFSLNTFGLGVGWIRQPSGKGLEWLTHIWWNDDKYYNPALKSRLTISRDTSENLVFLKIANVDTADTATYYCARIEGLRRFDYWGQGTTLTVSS VL: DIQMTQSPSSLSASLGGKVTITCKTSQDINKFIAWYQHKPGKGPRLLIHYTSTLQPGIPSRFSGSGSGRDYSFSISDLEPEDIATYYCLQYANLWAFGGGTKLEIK
VALUE_REPORTED: 0.9

INPUT: May I ask what percent of cells in the upper right quadrant (Q2-UR, mCD3+ and anti-hIgG+) has been recorded for human-mouse chimeric TNFR2 monoclonal antibody 27F6-hFc (antibody, V domains shown, Mouse V regions of clone 27F6 with human constant regions) VH: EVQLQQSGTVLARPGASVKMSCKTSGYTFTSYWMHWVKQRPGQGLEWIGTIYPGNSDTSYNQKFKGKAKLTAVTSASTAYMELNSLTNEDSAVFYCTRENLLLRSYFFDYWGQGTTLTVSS VL: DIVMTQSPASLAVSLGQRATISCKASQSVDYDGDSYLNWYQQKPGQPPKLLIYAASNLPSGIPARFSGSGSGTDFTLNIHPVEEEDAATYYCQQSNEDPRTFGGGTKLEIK ?
OUTPUT: 1.04
